ASSAY: Mouse pharmacokinetic detection
Assay type: in vivo
TEST SETTINGS: plasma, CD1 mice, oral gavage 10 mg/kg
Where a SMILES comes first, the peptide text is derived from it. [ ]: non-standard residue; d: D form. ξ: configuration not given here. pGlu = O=C1CC[C@@H](C(=O)O)N1; ξAze = O=C(O)C1CCN1
Kindly note that classification relies on AUC(0-t) with these boundaries: low (below 600 ng·h/mL), mid (600 ng·h/mL to below 4000 ng·h/mL), high (4000 ng·h/mL or more)

MOLECULE: [2H]C([2H])([2H])C(=O)N1CC[C@@H]1C(=O)N[C@H](C(=O)OC)C(C)C [A-2-9]
ASSIGNED CATEGORY: high

MOLECULE: C[C@H](NC(=O)[C@@H]1CCCN1)C(=O)O [D5-PA, reference compound] (H-Pro-Ala-OH)
ASSIGNED CATEGORY: low

MOLECULE: [2H]C([2H])([2H])OC(=O)[C@@H](NC(=O)C1CCN1C(C)=O)C(C)C (stereo partly drawn) [A-2-4]
ASSIGNED CATEGORY: mid

MOLECULE: CC(=O)N1CC[C@@H]1C(=O)NC(c1cc2ccccc2[nH]1)C(C)C (stereo partly drawn) [B-2-33]
ASSIGNED CATEGORY: mid

MOLECULE: CC(C)C[C@H](NC(=O)[C@@H]1CCC(=O)N1)C(=O)O [D4-pEL, reference compound] ([pGlu]-Leu-OH)
ASSIGNED CATEGORY: low

MOLECULE: COC(=O)[C@@H](NC(=O)C1CCN1C(C)=O)C(C)C (stereo partly drawn) [A-2-1] (Ac-[ξAze]-Val-OMe)
ASSIGNED CATEGORY: mid

MOLECULE: CC(=O)N1CCC1C(=O)N[C@H](c1ncc[nH]1)C(C)C (stereo partly drawn) [B-2-1]
ASSIGNED CATEGORY: mid

MOLECULE: [2H]C([2H])([2H])C(=O)N1CC[C@@H]1C(=O)N[C@H](c1ncco1)C(C)C [B-2-3]
ASSIGNED CATEGORY: high

MOLECULE: COC(=O)[C@@H](NC(=O)c1cnc(C)[nH]1)C(C)C [A-1-1]
ASSIGNED CATEGORY: mid
